Entry source: patent US20230203146A1

Each entry below carries its reported IC50.
Test Target: T1, FLAG-tagged cynomolgus Ang2 (cynomolgus, UniProt O15123 19-496 (human entry), limits assumed)
T1 construct: N-terminally FLAG-tagged, conditioned medium of HEK293T cells; also called cAng2; FLAG-cAng2
T1 chain: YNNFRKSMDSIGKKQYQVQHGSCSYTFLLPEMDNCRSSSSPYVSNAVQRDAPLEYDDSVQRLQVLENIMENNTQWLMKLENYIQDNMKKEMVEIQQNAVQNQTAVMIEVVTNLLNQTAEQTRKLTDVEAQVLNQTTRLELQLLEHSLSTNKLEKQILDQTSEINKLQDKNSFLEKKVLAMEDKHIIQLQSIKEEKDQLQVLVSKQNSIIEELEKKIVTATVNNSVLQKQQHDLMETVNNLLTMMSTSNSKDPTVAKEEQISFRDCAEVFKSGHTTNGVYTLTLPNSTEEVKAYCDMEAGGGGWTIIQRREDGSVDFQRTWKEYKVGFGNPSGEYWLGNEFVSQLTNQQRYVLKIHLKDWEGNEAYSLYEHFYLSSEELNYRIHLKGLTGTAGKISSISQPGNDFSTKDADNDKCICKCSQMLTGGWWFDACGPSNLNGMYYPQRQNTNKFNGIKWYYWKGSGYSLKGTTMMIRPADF
Test Details: competition ELISA: FLAG-cAng2 binding to coated cTie2-Fc
Provide only the numeric value, understood in pM.

Past entries and their recorded results:
# Binder, Unit Abbreviation, Assay Value
rows = [
    ("VHH 00956 (VHH, not shown: small tags and cut ends) VHH: EVQLVESGGGLVQPGGSLRLSCAASGFTLDDYAIGWFRQAPGKEREGVSAIRSSGGSTYYADSVKGRFTISSDNSKNTVYLQMNSLRPEDTAVYYCAAVPAGRLRFGEQWYPLYEYDAWGQGTLVTVSS", "pM", 830),
    ("VHH 00937 (VHH, not shown: small tags and cut ends, Cycle 3 variant of 28D10 on the 00908 backbone) VHH: EVQLVESGGGLVQPGGSLRLSCAVSGITLDDYAIGWFRQAPGKEREGVSAIRESGGSTYYADSVKGRFTISSDNSKNTVYLQMNSLRPEDTAVYYCAAVPAGRLRYGEQWYPIYEYDAWGQGTLVTVSS", "pM", 85),
]

Inquiry: For VHH 00027 (VHH, not shown: small tags and cut ends, Variant of 28D10 carrying C50S/S53N and Q108L) VHH: EVQLVESGGGLVQAGGSLRLSCAASGFTLDDYAIGWFRQAPGKEREGVSSIRDNDGSTYYADSVKGRFTISSDNDKNTVYLQMNSLKPEDTAVYYCAAVPAGRLRFGEQWYPLYEYDAWGQGTLVTVSS , what is its reported IC50?
Reply text: 728

Inquiry: Quick one: IC50 of VHH 00938 (VHH, not shown: small tags and cut ends, Cycle 3 variant of 28D10 on the 00908 backbone) VHH: EVQLVESGGGLVQPGGSLRLSCAVSGITLDDYAIGWFRQAPGKEREGVSAIRSSGGSTYYADSVKGRFTISSDNSKNTVYLQMNSLRPEDTAVYYCAAVPAGRLRYGEQWYPIYEYDAWGQGTLVTVSS ?
Reply text: 91
